// TGI lookup, one value per entry
test system: OVCAR-8 ovarian; assay: NCI tumour cell line growth inhibition, 48 h

Consider the worked cases shown below.
>  <Compound>
CCOC(=O)CCn1[nH]c(=O)c(Cl)c(Cl)c1=O

>  <TGI>
> 100 µM

$$$$
>  <Compound>
CC(=O)Nc1ccc2[nH]c(C(=O)N3CC(CCl)c4c3cc(N)c3ccccc43)cc2c1 (stereo not given)

>  <TGI>
< 0.027 µM

$$$$
>  <Compound>
C/C(=C1/CCC/C(=C(/C)c2ccccc2)C1=O)c1ccccc1

>  <TGI>
> 100 µM

$$$$

Now look at this entry.
get_value(item= `CSC1=N/C(=C\c2ccccc2)C(=O)N1CN1CCCCC1` , readout=TGI) returns > 100 µM

----------
tested on: T-47D breast; assay: NCI tumour cell line growth inhibition, 48 h
Measured Attribute: TGI

>  <Compound>
COC(=O)C1C(=O)C=CN([C@H](C)c2ccccc2)[C@@H]1Cc1ccc(OC)c(OCc2ccccc2)c1I (stereo partly drawn)

>  <TGI>
60.9 µM

$$$$

Given item `CCOP(=O)(CN1CCNCCNCC1)OCC` , the value recorded as its TGI is > 100 µM

`COc1ccc(-n2cc(-c3cc(OC)c(OC)c(OC)c3)[nH]c2=O)cc1Cl` yielded TGI of > 100 µM

The compound `CC(=NNC(=S)Nc1ccc(C)cc1)c1cccc(C(C)=NNC(=S)Nc2ccc(C)cc2)n1` showed TGI equal to > 100 µM

The compound listed as `Cn1c2ccccc2c2c3[nH]c(=O)[nH]c(=O)c3c3c4ccccc4n(C)c3c21` shows TGI equal to 27.1 µM

Sure, the documented TGI for `O=[N+]([O-])c1cccc2nc3ccccc3c(NCCC[N+]3([O-])CCOCC3)c12` is 0.919 µM

----------
system: COLO 205 colon; assay: NCI tumour cell line growth inhibition, 48 h
Measured Attribute: TGI

>  <Compound>
COc1ccc(-n2cc(-c3cc(OC)c(OC)c(OC)c3)[nH]c2=O)cc1Cl

>  <TGI>
> 100 µM

$$$$
>  <Compound>
Fc1ccc(C2SCc3nc4ccccc4n32)cc1Cl (stereo not given)

>  <TGI>
28.6 µM

$$$$
>  <Compound>
c1cc2c(ncc3cscc32)s1

>  <TGI>
> 100 µM

$$$$
>  <Compound>
N#C/C(=C\c1cc2ccccc2c2ccccc12)c1ccccc1

>  <TGI>
10.6 µM

$$$$
>  <Compound>
Cc1ccccc1N=Nc1ccc(N/N=C2/CCCNC2=O)c(C)c1

>  <TGI>
> 100 µM

$$$$

TGI measured on CC(C)N1CN(C(C(=O)N[C@@H]2C(=O)N3C2SC(C)(C)C3C(=O)O)c2ccccc2)CSC1=S (stereo not given in full) = > 100 µM

Item: C=C(C)C1CCC2(C(=O)O)CCC3(C)C(CCC4C5(C)CCC(OC(=O)NCc6ccccc6)C(C)(C)C5CCC43C)C12 (stereo not given) | TGI: 5.44 µM

----------
# TGI annotations
system: K-562 leukemia; assay: NCI tumour cell line growth inhibition, 48 h

>  <Molecule>
C=C1C(=O)O[C@H]2[C@H]1CC/C(COC(=O)c1cc3ccccc3s1)=C\CC[C@@]1(C)O[C@@H]21

>  <TGI>
30.5 µM

$$$$
>  <Molecule>
COC/C=C\[C@]1(O)CCCC[C@@H]1CC(OC)OC

>  <TGI>
> 100 µM

$$$$
>  <Molecule>
COc1cccc(N2C(=O)[C@H]3CC(C)c4c([nH]c5ccccc45)[C@H]3C2=O)c1 (stereo not given in full)

>  <TGI>
> 100 µM

$$$$
>  <Molecule>
Cn1cnc([N+](=O)[O-])c1[Se]c1nc(N)nc2c1ncn2C1OC(CO)C(O)C1O (stereo not given)

>  <TGI>
> 100 µM

$$$$

The reported value for Cc1ccc(NC(=O)c2sc3nc(C)c(C(O)c4ccccc4)cc3c2N)cc1 (stereo not given) in terms of TGI is > 100 µM

----------
test system: K-562 leukemia; assay: NCI tumour cell line growth inhibition, 48 h
Measured Attribute: TGI

See these solved cases before continuing.
>  <Molecule>
Cc1ccc(S(=O)(=O)OC(c2ccc(Cl)cc2Cl)C2OC(=O)c3ccccc32)cc1 (stereo unspecified)

>  <Result>
> 100 µM

$$$$
>  <Molecule>
N#C/C(N)=C(\C#N)N=CN

>  <Result>
> 100 µM

$$$$
>  <Molecule>
COc1ccc(/C=C\c2cc(OC)c(OC)c(OC)c2)cc1OC(=O)NCCN(C)C

>  <Result>
23.7 µM

$$$$
>  <Molecule>
Cc1ccc(C)c(COCCOCn2ccc(N)nc2=O)c1

>  <Result>
> 100 µM

$$$$
>  <Molecule>
CN1C2CCC1CC(CCNC(c1ccccc1)c1ccccc1)C2 (stereo unspecified)

>  <Result>
27.4 µM

$$$$

// sample Cc1ccc2c(c1)C1(C)OC(C=CC1=O)O2 (stereo unspecified) , its TGI was 0.902 µM

Record `N#C/C(=C\c1cc2ccccc2c2ccccc12)c1ccccc1` , field TGI: 13.7 µM

For record `CCn1c(SCC(=O)NNC(=S)Nc2ccc(C)cc2)nc2ccccc2c1=O` the listed TGI is > 100 µM

For reference, reported TGI for `CCOC(=O)C(Cc1cn(S(=O)(=O)c2ccccc2)c2ccccc12)(NC(C)=O)C(=O)OCC` stands at > 100 µM

Please fill in: TGI reported for `COc1cccc(/C=C2\C(=O)N(C(=O)c3ccc(NC(C)=O)cc3)N=C2C)c1` = > 100 µM

Briefly, TGI measured for `COc1cc2c(cc1OC)CCc1cc(OC)c(OC)cc1CC2` : > 100 µM

----------
tested on: RXF-631 renal; test: NCI tumour cell line growth inhibition, 48 h
Measured Attribute: TGI

The cases that follow already have their TGI on record.
>  <Molecule>
CN(C)C(c1ccccc1)C(O)c1ccccc1 (stereo unspecified)

>  <TGI>
> 100 µM

$$$$
>  <Molecule>
Fc1ccc(C2SCc3nc4ccccc4n32)cc1Cl (stereo unspecified)

>  <TGI>
> 100 µM

$$$$
>  <Molecule>
O=C1CCCCC2N(C(c3ccccc3)c3ccccc3)CC[C@@]12c1ccccc1 (mixture of isomers)

>  <TGI>
> 10 µM

$$$$
>  <Molecule>
N#CCc1ccc(C(C#N)/C(CCCC(=O)Nc2cccc([N+](=O)[O-])c2)=N/NC(N)=S)cc1 (stereo unspecified)

>  <TGI>
> 100 µM

$$$$
>  <Molecule>
COc1ccc2c3c(coc13)C(CCC(=O)O)CC2 (stereo unspecified)

>  <TGI>
> 100 µM

$$$$

// next entry
Lookup result for `FC(F)(F)c1nc(-c2ccccc2)oc1Sc1nnc(Sc2oc(-c3ccccc3)nc2C(F)(F)F)s1` ; measured TGI: > 84.1 µM

----------
system: M14 melanoma; test: NCI tumour cell line growth inhibition, 48 h
Parameter TGI: see the listing below.

>  <Compound>
N#Cc1c(Cl)c2cc([N+](=O)[O-])ccc2n2c1nc1ccccc12

>  <TGI>
4.41 µM

$$$$
>  <Compound>
CCO/N=C(/N)c1ncn(Cc2ccccc2)c1NCC(OCC)OCC

>  <TGI>
> 100 µM

$$$$
>  <Compound>
O=C1C(Cl)C(c2cccc(Cl)c2)N1c1ccc(-n2c(=S)[nH]c3ccccc3c2=O)cc1 (stereo unspecified)

>  <TGI>
58.7 µM

$$$$
>  <Compound>
CO[C@H]1C=C[C@@]23c4cc5c(cc4CO[C@]2(O)CN(C)[C@H]3C1)OCO5

>  <TGI>
> 100 µM

$$$$
>  <Compound>
OC/C=C(\I)CCCOCOCc1ccccc1

>  <TGI>
> 100 µM

$$$$
>  <Compound>
CSC1=N/C(=C\c2ccccc2)C(=O)N1CN1CCCCC1

>  <TGI>
> 100 µM

$$$$

Measured TGI of `c1csc(-c2cc(-c3cccs3)c(-c3ccsc3)s2)c1` : > 100 µM

# TGI (compound: `CN(C)CCCN1c2ccccc2Sc2cnccc21` ) is > 100 µM

Input `CC1=CC(=O)N(n2c(Cc3ccccc3)n[nH]c2=O)C1=O` . Output TGI: > 100 µM

TGI reported for this compound COc1cc(/C=C2\CN(C)CC3=C2NC(=S)NC3c2cc(OC)c(OC)c(OC)c2)cc(OC)c1OC (stereo unspecified) : > 100 µM

TGI in this record for `COc1ccc(OC)c(C(=O)c2oc3ccc(Br)cc3c2N)c1` : 16.3 µM

----------
test system: UACC-257 melanoma; experiment: NCI tumour cell line growth inhibition, 48 h
Reported TGI by item:

>  <Compound>
C=C(CC[C@@H](C)[C@H]1CC[C@@]2(C)C3=C(CC[C@]12C)[C@@]1(C)CC[C@H](O)[C@@H](C)C1CC3)C(C)C (stereo partly specified)

>  <TGI>
2.7 µM

$$$$

Looking up `CC1=CC(=O)N(n2c(Cc3ccccc3)n[nH]c2=O)C1=O` , I see its TGI listed as > 100 µM

compound CCOC(=O)C(O)(NC(=O)c1ccc(F)cc1)C(F)(F)F (stereo unspecified) , TGI observed: > 100 µM

So for `COc1ccccc1N1CCN(CCCN2/C(=C(\O)c3ccccc3)C(=O)c3c(C)cc(C)nc3S2(=O)=O)CC1` , the logged TGI turned out to be > 100 µM

Data point: `N#C/C(=C\c1cc2ccccc2c2ccccc12)c1ccccc1` ; TGI = > 89 µM

Reported TGI of `CC[CH2][Sn]([Cl])([Cl])[CH2]CC.Oc1ccccc1C=NCCN=Cc1ccccc1O` : 17.8 µM

Reported TGI of COc1ccc(N2C(=O)C3ON(C(C(N)=O)c4ccccc4)C(c4cc5ccccc5c5ccccc45)C3C2=O)cc1 (stereo unspecified) : > 50 µM

Please fill in: TGI reported for `Nc1nc(-c2cccc(Cl)c2)c(-c2ccc3ncccc3n2)s1` = > 25 µM

// sample `N#Cc1cccc(NC(=O)c2cc(-c3ccc(F)cc3F)ccc2O)c1` , its TGI was 5.84 µM

Entry `COc1cc2c(c(OC)c1OC)C(=O)[C@@H]1c3ccc([N+](=O)[O-])cc3C(=O)N(CCCBr)[C@H]21` , TGI reported as 30.8 µM

Value of measured TGI for the entry O=C(Nc1ccc(Cl)cc1Cl)C(=O)C(C(=O)c1ccncc1)C1OC(=O)c2ccccc21 (stereo unspecified) : > 100 µM

Record summary for `Cc1cc(O)c(C(C)(C)C)cc1Sc1cc(C(C)(C)C)c(O)cc1C` : reported TGI = 6.89 µM

Measured TGI of COC(C(O)c1ccc2c(c1)OCO2)P(=O)(c1ccccc1)c1ccccc1 (stereo unspecified) : > 100 µM

For CC(C)N1CN(C(C(=O)N[C@@H]2C(=O)N3C2SC(C)(C)C3C(=O)O)c2ccccc2)CSC1=S (stereo partly specified) the compound record lists TGI as > 100 µM

Query COc1ccc(C2SCC(=O)N2NC(=O)Nc2c(C)nc3ccccn23)cc1 (stereo unspecified) yields TGI of > 100 µM

GET /value?item= `COc1ccc(OC)c(C(=O)c2oc3ccc(Br)cc3c2N)c1` &field=TGI returns 21.8 µM

The value of TGI measured for the compound Cc1[nH]c2ccccc2c1C1Cc2ccccc2N1C(=O)/C(Cl)=C/c1ccccc1 (stereo unspecified) turned out to be > 100 µM
